Source of measurements: paper PMC2826549

# TEST_SYSTEM: P2X1 (Homo sapiens)
# Sequence (P51575 whole entry): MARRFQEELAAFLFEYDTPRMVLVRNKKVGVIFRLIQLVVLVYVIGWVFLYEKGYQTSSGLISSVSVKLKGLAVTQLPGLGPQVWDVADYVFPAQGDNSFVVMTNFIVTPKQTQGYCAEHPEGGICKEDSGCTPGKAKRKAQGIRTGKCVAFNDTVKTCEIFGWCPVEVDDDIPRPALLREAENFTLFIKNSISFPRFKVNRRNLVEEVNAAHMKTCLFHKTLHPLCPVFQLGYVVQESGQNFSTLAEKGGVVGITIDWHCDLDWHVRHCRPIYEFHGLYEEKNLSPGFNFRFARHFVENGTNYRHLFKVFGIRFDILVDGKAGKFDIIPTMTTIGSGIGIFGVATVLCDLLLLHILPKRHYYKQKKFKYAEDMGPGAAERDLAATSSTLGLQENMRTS
# RUN_DESCRIPTION: FLUO-4 flow cytometry of extracellular Ca2+ entry in human platelets
# CONDITIONS_USED: read-out: Ap4A Agonist Activity
PROPERTY_MEASURED: EC50

Kindly note: P2X1 (Homo sapiens), Nc1ncnc2c1ncn2[C@@H]1O[C@H](COP(=O)(O)OP(=O)(O)OP(=O)(O)OP(=O)(O)OC[C@H]2O[C@@H](n3cnc4c(N)ncnc43)[C@H](O)[C@@H]2O)[C@@H](O)[C@H]1O [Ap4A] , EC50 value reported: ~300 nM

----------
# TEST_SYSTEM: P2Y1 (Homo sapiens, UniProt P47900)
# Sequence (P47900 whole entry): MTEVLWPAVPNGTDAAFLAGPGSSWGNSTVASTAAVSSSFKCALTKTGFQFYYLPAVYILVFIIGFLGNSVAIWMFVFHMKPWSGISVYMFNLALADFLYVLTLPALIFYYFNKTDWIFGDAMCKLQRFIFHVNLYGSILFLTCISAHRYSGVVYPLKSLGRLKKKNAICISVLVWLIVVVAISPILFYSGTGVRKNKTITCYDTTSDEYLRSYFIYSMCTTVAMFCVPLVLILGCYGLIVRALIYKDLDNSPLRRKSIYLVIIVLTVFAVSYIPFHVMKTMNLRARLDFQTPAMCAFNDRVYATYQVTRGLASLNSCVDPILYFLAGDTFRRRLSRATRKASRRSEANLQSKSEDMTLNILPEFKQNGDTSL
# RUN_DESCRIPTION: inhibition of […] ADP-induced cytosolic Ca2+ increase in human platelets
PROPERTY_MEASURED: pIC50
Answers are plain numbers, as −log10 of the molar value.

Kindly note: P2Y1 (Homo sapiens, UniProt P47900), Nc1ncnc2c1ncn2[C@@H]1O[C@H](COP(=O)(O)OP(=O)(O)OP(=O)(O)OP(=O)(O)OC[C@H]2O[C@@H](n3cnc4c(N)ncnc43)[C@H](O)[C@@H]2O)[C@@H](O)[C@H]1O , pIC50 value reported: 4.39

----------
# TEST_SYSTEM: P2Y12 (Homo sapiens, UniProt Q9H244)
# Sequence (Q9H244 whole entry): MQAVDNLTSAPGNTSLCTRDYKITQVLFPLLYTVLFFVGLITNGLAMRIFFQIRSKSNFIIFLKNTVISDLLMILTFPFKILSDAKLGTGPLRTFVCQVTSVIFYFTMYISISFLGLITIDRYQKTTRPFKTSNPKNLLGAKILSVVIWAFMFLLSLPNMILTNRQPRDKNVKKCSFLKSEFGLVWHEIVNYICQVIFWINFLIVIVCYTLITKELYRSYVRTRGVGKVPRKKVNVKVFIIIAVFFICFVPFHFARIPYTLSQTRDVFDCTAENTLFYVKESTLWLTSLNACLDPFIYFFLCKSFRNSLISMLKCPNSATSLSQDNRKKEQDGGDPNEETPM
# RUN_DESCRIPTION: VASP phosphorylation flow cytometry in human whole blood platelets
pIC50: −log10 of the molar value.
PROPERTY_MEASURED: pIC50

Reported pIC50 of Nc1ncnc2c1ncn2[C@@H]1O[C@H](COP(=O)(O)OP(=O)(O)OP(=O)(O)OP(=O)(O)OC[C@H]2O[C@@H](n3cnc4c(N)ncnc43)[C@H](O)[C@@H]2O)[C@@H](O)[C@H]1O [Ap4A] : < 3.60
